Values compiled from patent US20240182536A1.

Readings of HEK-blue EC50 (pM) - BP for the listed binders
# system-tested: T1, IL-18 receptors on HEK-Blue IL-18 reporter cells (UniProt Q13478 19-541; O95256 20-599, limits assumed)
# T1 sequence (looked up) 1: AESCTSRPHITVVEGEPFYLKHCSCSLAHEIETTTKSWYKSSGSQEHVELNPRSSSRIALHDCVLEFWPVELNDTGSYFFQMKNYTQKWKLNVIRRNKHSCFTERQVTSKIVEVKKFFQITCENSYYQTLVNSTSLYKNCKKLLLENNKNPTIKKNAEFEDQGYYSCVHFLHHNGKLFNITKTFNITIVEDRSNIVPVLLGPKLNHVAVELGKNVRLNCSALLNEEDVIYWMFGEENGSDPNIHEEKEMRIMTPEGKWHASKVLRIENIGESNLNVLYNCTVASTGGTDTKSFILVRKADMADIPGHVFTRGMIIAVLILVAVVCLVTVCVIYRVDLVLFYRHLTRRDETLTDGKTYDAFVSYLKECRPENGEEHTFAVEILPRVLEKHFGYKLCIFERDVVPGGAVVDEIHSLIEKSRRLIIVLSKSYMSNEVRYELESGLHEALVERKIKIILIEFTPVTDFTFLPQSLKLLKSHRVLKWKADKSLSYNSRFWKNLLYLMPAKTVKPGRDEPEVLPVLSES
# T1 sequence (looked up) 2: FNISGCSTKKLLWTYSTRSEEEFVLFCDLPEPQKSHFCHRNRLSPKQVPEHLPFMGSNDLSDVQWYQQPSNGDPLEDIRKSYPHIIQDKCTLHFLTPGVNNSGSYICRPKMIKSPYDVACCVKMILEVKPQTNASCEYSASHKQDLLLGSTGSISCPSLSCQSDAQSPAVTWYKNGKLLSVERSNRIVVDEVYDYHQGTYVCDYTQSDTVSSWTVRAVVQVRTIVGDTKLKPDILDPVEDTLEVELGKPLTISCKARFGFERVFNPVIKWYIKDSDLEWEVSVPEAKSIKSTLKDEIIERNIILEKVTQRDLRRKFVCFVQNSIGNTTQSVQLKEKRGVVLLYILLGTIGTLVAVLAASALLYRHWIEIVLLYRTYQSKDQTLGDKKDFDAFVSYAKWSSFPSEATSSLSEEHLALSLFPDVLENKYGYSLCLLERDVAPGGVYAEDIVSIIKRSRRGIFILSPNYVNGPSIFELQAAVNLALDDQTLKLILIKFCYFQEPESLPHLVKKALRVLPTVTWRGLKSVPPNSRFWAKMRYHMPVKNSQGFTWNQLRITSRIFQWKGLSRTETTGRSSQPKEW
# procedure-text: cell-based or functional assay
// return numeric value only (unit: pM, not printed)

Field HEK-blue EC50 (pM) - BP (entry IL-18 variant K53S, S55K (ligand) YFGKLESKLSVIRNLNDQVLFIDQGNRPLFEDMTDSDMRDNAPRTIFIISMYSDKQPRGMAVTISVKSEKISTLSSENKIISFKEMNPPDNIKDTKSDIIFFQRSVPGHDNKMQFESSSYEGYFLASEKERDLFKLILKKEDELGDRSIMFTVQNED ) reads 21.8

Field HEK-blue EC50 (pM) - BP (entry IL-18 variant K53T, S55P (ligand) YFGKLESKLSVIRNLNDQVLFIDQGNRPLFEDMTDSDMRDNAPRTIFIISMYTDPQPRGMAVTISVKSEKISTLSSENKIISFKEMNPPDNIKDTKSDIIFFQRSVPGHDNKMQFESSSYEGYFLASEKERDLFKLILKKEDELGDRSIMFTVQNED ) reads 103

Field HEK-blue EC50 (pM) - BP (entry IL-18 variant K53S, S55Y (ligand) YFGKLESKLSVIRNLNDQVLFIDQGNRPLFEDMTDSDMRDNAPRTIFIISMYSDYQPRGMAVTISVKSEKISTLSSENKIISFKEMNPPDNIKDTKSDIIFFQRSVPGHDNKMQFESSSYEGYFLASEKERDLFKLILKKEDELGDRSIMFTVQNED ) reads 70
